Quick reference: residual activity of the listed items.
# TARGET_OR_SYSTEM: UniProt:Q9NWZ3
# Sequence (Q9NWZ3 whole entry, looked up): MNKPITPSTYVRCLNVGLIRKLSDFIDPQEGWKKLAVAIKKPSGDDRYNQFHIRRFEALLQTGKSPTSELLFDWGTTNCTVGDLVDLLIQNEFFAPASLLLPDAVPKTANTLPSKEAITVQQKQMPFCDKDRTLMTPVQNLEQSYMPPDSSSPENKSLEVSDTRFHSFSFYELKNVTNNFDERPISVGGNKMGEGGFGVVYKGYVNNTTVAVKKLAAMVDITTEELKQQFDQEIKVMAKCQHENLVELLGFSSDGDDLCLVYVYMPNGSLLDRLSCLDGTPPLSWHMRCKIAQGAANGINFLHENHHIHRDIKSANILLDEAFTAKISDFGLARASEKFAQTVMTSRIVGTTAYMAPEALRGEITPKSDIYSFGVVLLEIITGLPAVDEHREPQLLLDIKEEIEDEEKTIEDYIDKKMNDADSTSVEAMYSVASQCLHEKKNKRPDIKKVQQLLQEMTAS
# EXPERIMENT_NOTES: radiometric filter-binding kinase assay, Kinase HotSpot
# STATED_CONDITIONS: compound 0.5 µM; ATP 10 µM
PROPERTY: residual activity (%)

# COMPOUND, PROPERTY, OBSERVED_RESULT
records = [
    ("Nc1nc(Nc2ccc(S(N)(=O)=O)cc2)nn1C(=S)Nc1c(F)cccc1F", "residual activity", 19.6),
    ("Cc1cc2ncc(-c3ccccc3)nc2cc1C", "residual activity", 93.1),
    ("COc1ccc(-c2cnc3c(-c4ccsc4)cnn3c2)cc1", "residual activity", 82.1),
    ("COc1cc2ncnc(Nc3ccc(F)c(Cl)c3)c2cc1OCCCN1CCOCC1", "residual activity", 78.8),
    ("O=C1Nc2ccccc2/C1=C\\c1c(Cl)[nH]c2ccccc12", "residual activity", 102),
    ("Nc1nc(Nc2ccc(S(N)(=O)=O)cc2)nn1C(=O)c1c(F)cccc1F", "residual activity", 151),
    ("O=C1Nc2cc(Br)ccc2/C1=C1/Nc2ccccc2/C1=N\\O", "residual activity", 90.1),
    ("O=c1cc(N2CCNCC2)oc2c(-c3ccccc3)cccc12", "residual activity", 96.8),
    ("CC(C)(C)c1nc2c3ccc(F)cc3c3c(=O)[nH]ccc3c2[nH]1", "residual activity", 96.3),
    ("Clc1ccc(Nc2nnc(Cc3ccncc3)c3ccccc23)cc1", "residual activity", 85.1),
    ("CC(C)[C@H](CO)Nc1nc(Nc2cccc(Cl)c2)c2ncn(C(C)C)c2n1", "residual activity", 88.6),
    ("CSc1nc(-c2ccc(F)cc2)c(-c2ccnc(NC(C)c3ccccc3)c2)[nH]1 (configuration not stated)", "residual activity", 82.6),
    ("O=C(Nc1ccc(Cl)cc1)c1ccccc1NCc1ccncc1", "residual activity", 104),
    ("Nc1n[nH]c2nnc(-c3c(-c4ccccc4)nn4ccccc34)cc12", "residual activity", 99.7),
    ("CCN1/C(=C/C(C)=O)Sc2ccc(OC)cc21", "residual activity", 123),
    ("COc1cc2nccc(Oc3ccc(NC(=S)NC(=O)c4ccccc4C)cc3)c2cc1OC", "residual activity", 82.4),
    ("O=c1cc(-c2cccc3c2Sc2ccccc2S3)oc(N2CCOCC2)c1", "residual activity", 160),
    ("NC(=O)c1ccc(N(C(N)=O)c2c(F)cccc2F)nc1-c1ccc(F)cc1F", "residual activity", 87.5),
    ("O=C1Cc2c([nH]c3ccc([N+](=O)[O-])cc23)-c2ccccc2N1", "residual activity", 167),
    ("CCCNC(=O)Nc1ccc(Oc2ncnc3cc(OC)c(OC)cc23)cc1Cl", "residual activity", 92),
    ("CS(=O)c1ccc(-c2nc(-c3ccc(F)cc3)c(-c3ccncc3)[nH]2)cc1 (configuration not stated)", "residual activity", 130),
    ("Cc1ccc(NC(=O)c2ccc(CN3CCN(C)CC3)cc2)cc1Nc1nc(-c2cccnc2)cs1", "residual activity", 97.4),
]

====

# TARGET_OR_SYSTEM: CSNK1G2 (human)
# EXPERIMENT_NOTES: radiometric filter-binding kinase assay, Kinase HotSpot
# STATED_CONDITIONS: compound 0.5 µM; ATP 10 µM
Quick reference: residual activity of the listed items.

# COMPOUND, residual activity
data = [
    ("O=C(NC(NC(=S)Nc1ccc(F)c([N+](=O)[O-])c1)C(Cl)(Cl)Cl)C(c1ccccc1)c1ccccc1 (centres undefined)", "98.3%"),
    ("Nc1nc(Nc2ccc(S(N)(=O)=O)cc2)nn1C(=S)Nc1c(F)cccc1F", "14.8%"),
    ("Cc1cc2ncc(-c3ccccc3)nc2cc1C", "86.5%"),
    ("Oc1ccc(-c2nc(-c3ccc(F)cc3)c(-c3ccncc3)[nH]2)cc1", "91.9%"),
    ("COc1cc2nccc(Oc3ccc(NC(=S)NC(=O)c4ccccc4C)cc3)c2cc1OC", "106%"),
    ("Clc1ccc(Nc2nnc(Cc3ccncc3)c3ccccc23)cc1", "98.2%"),
    ("O=C1Nc2ccccc2/C1=C\\c1c(Cl)[nH]c2ccccc12", "96.3%"),
    ("CCCNC(=O)Nc1ccc(Oc2ncnc3cc(OC)c(OC)cc23)cc1Cl", "84.8%"),
    ("O=c1cc(N2CCNCC2)oc2c(-c3ccccc3)cccc12", "101%"),
    ("CC(C)(C)c1nc2c3ccc(F)cc3c3c(=O)[nH]ccc3c2[nH]1", "100%"),
    ("O=C1Nc2cc(Br)ccc2/C1=C1/Nc2ccccc2/C1=N\\O", "105%"),
    ("COc1ccc(-c2cnc3c(-c4ccsc4)cnn3c2)cc1", "82.3%"),
    ("CSc1nc(-c2ccc(F)cc2)c(-c2ccnc(NC(C)c3ccccc3)c2)[nH]1 (centres undefined)", "75.6%"),
    ("CC(C)[C@H](CO)Nc1nc(Nc2cccc(Cl)c2)c2ncn(C(C)C)c2n1", "32.4%"),
    ("O=C1Cc2c([nH]c3ccc([N+](=O)[O-])cc23)-c2ccccc2N1", "91.7%"),
    ("O=C(Nc1ccc(Cl)cc1)c1ccccc1NCc1ccncc1", "88.3%"),
    ("CS(=O)c1ccc(-c2nc(-c3ccc(F)cc3)c(-c3ccncc3)[nH]2)cc1 (centres undefined)", "95.7%"),
    ("Nc1n[nH]c2nnc(-c3c(-c4ccccc4)nn4ccccc34)cc12", "93.7%"),
    ("C#Cc1cccc(Nc2ncnc3cc(OCCOC)c(OCCOC)cc23)c1", "98.3%"),
    ("NC(=O)c1ccc(N(C(N)=O)c2c(F)cccc2F)nc1-c1ccc(F)cc1F", "99.6%"),
    ("COc1cc2ncnc(Nc3ccc(F)c(Cl)c3)c2cc1OCCCN1CCOCC1", "98.1%"),
    ("Cc1ccc(NC(=O)c2ccc(CN3CCN(C)CC3)cc2)cc1Nc1nc(-c2cccnc2)cs1", "92.9%"),
    ("O=c1cc(-c2cccc3c2Sc2ccccc2S3)oc(N2CCOCC2)c1", "93.3%"),
    ("CC(C)n1cnc2c(Nc3cccc(Cl)c3)nc(NCCO)nc21", "20.6%"),
]
